- Test system: Syrian golden hamster
- Test Summary: Toxicity in castrated golden hamster at 2 mg/kg, sc co-administered with testosterone for 6 days
- Assay type: organism-based, Mesocricetus auratus
- Assay Conditions: in vivo, 144 h
Outcome Measure: Activity

[
  {
    "Compound String": "C[C@]12CC[C@H](OC(=O)C3CCCCC3)CC1=CC[C@@H]1[C@@H]2CC[C@]2(C)C(C(=O)Cn3ccnc3)=CC[C@@H]12",
    "Assay Result": "Non-Toxic"
  },
  {
    "Compound String": "C[C@]12CC[C@H](OC(=O)C3CC3)CC1=CC[C@@H]1[C@@H]2CC[C@]2(C)C(C(=O)Cn3ccnc3)=CC[C@@H]12",
    "Assay Result": "Non-Toxic"
  },
  {
    "Compound String": "CCC(=O)O[C@H]1CC[C@@]2(C)C(=CC[C@@H]3[C@@H]2CC[C@]2(C)C(C(=O)Cn4ccnc4)=CC[C@@H]32)C1",
    "Assay Result": "Non-Toxic"
  },
  {
    "Compound String": "C[C@]12CC[C@H](OC(=O)C3CCC3)CC1=CC[C@@H]1[C@@H]2CC[C@]2(C)C(C(=O)Cn3ccnc3)=CC[C@@H]12",
    "Assay Result": "Non-Toxic"
  }
]
